- assayProtocol: In vivo pharmacokinetic study in rats (IV and PO)
- Parameters: species or system rat (SD)
- measurementParameters: plasma; rat, PO 10 mg/kg (IV 2 mg/kg)
In this section we review reported bioavailability values for a set of compounds.
measurementKind: bioavailability (%)

                                   compound  measurementkind  observedmeasurement
0  O=C1CCC(N2Cc3cc(CNC(=O)C4=Cc5cc(OC(F)(F)F)ccc5OC4)ccc3C2=O)C(=O)N1 (stereo not shown)  bioavailability                 22.9
1  O=C1CCC(N2Cc3cc(CNC(=O)C4=Cc5ccccc5OC4)ccc3C2=O)C(=O)N1 (stereo not shown)  bioavailability                 19.3
2  O=C1CCC(N2Cc3c(ccc(CNC(=O)C4=Cc5cc(OC(F)(F)F)ccc5OC4)c3F)C2=O)C(=O)N1 (stereo not shown)  bioavailability                  9.8
3  O=C1CCC(N2Cc3cc(CNC(=O)C(F)(F)c4ccc(Cl)cc4)ccc3C2=O)C(=O)N1 (stereo not shown) [CC-90009, reference compound]  bioavailability                 31.2
